From: patent US5272175A

Below, each entry is listed alongside its reported IC50.
# experimentalSystem: UniProt P33533
# Sequence (P33533 whole entry): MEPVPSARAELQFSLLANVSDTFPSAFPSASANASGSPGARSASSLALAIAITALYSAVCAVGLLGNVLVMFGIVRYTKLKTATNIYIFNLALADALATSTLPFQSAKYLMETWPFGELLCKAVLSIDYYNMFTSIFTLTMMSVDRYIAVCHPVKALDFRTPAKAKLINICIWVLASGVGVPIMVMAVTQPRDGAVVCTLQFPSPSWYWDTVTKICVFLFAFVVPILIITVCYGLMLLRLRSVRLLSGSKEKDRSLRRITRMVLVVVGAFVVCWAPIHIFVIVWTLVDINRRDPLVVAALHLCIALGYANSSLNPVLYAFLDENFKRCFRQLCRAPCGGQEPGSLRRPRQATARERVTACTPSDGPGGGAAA
# testSummary: Opiate Binding Assay, displacement of 3[H]-DSLET from δ receptors
Structures can show the parent of a compound that is named as a salt.

I am curious: what IC50 value has been reported for CNC(=O)N[C@@H](Cc1ccccc1)C(=O)NCC(C)(C)NC(=O)[C@@H](N)Cc1c(C)cc(O)cc1C [Example 37, monohydrochloride] ? ~2 nM

What IC50 value was documented for this compound, Cc1cc(O)cc(C)c1C[C@H](N)C(=O)NC(C)(C)CNC(=O)[C@H](Cc1ccccc1)NC(=O)NS(=O)(=O)c1ccccc1 [Example 59, monohydrochloride] ? 7.3 nM

I have this compound here, Cc1cc(O)cc(C)c1C[C@H](N)C(=O)NC(C)(C)CNC(=O)[C@H](Cc1ccccc1)NC(=O)NCc1ccccc1 [Example 33, hydrochloride] , and I need its recorded IC50. ~2 nM

Tell me the measured IC50 of CC(=O)N[C@@H](Cc1ccccc1)C(=O)NC(C)(C)CNC(=O)[C@@H](N)Cc1c(C)cc(O)cc1C [Example 39, monohydrochloride] , please. 7.8 nM

Which IC50 is listed for C=CCNC(=O)N[C@@H](Cc1ccccc1)C(=O)NCC(C)(C)NC(=O)[C@@H](N)Cc1c(C)cc(O)cc1C [Example 28, monohydrochloride] ? ~2 nM

* * *

# experimentalSystem: μ opioid receptors (Rattus norvegicus)
# Sequence (P33535 whole entry): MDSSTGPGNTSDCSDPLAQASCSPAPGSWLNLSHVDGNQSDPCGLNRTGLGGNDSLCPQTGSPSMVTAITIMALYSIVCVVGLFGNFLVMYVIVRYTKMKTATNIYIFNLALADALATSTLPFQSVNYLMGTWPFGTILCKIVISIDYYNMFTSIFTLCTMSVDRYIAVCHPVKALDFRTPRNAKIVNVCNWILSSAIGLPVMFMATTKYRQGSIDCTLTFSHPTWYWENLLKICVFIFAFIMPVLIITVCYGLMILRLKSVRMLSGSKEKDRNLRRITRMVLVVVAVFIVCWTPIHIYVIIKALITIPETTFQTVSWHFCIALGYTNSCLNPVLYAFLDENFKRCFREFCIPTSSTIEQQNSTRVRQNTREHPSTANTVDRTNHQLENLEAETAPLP
# testSummary: Opiate Binding Assay, displacement of 3[H]-DAMPGO from μ receptors
Counter-ions that a name gives are not always drawn.
outcomeMeasure: IC50 (nM)
Give your result in nM as a bare value.

CC(=O)N[C@@H](Cc1ccccc1)C(=O)NCC(C)(C)NC(=O)[C@@H](N)Cc1ccc(O)cc1 [Jacobson Compound, reference compound]: 0.6
CC(=O)N[C@@H](Cc1c(C)cccc1C)C(=O)NCCNC(=O)[C@@H](N)Cc1c(C)cc(O)cc1C [Example 52, hydrochloride]: 0.6
CC(=O)N[C@H](C(=O)NCC(C)(C)NC(=O)[C@@H](N)Cc1c(C)cc(O)cc1C)c1ccccc1 [Example 20, hydrochloride]: 1.2
Cc1cc(O)cc(C)c1C[C@H](N)C(=O)NC(C)(C)CNC(=O)[C@H](Cc1ccccc1)NC(=O)OCc1ccccc1 [Example 10, monohydrochloride]: 3.3

Then this molecule:
For μ opioid receptors (Rattus norvegicus), provide IC50 of CC(=O)N[C@@H](Cc1ccccc1)C(=O)NC(C)(C)CNC(=O)[C@@H](N)Cc1c(C)cc(O)cc1C [Example 39, monohydrochloride] please. 4.7
